B1: C8orf76 (parent)
chain: YCAKLCEPQWFYEETESSDDVEVL

- Variants of: B1
- procedure.text: protein stability index of a GFP-peptide fusion (GPS, HEK-293T) (PSI 1-6); higher = more stable;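 further: lentivirally expressed fusions sorted by FACS into six bins by GFP to DsRed ratio, PSI derived from sequencing read proportions per bin multiplied by bin number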
- condition.label: c terminus: a fixed tail appended
# if value of protein stability index reaches 3, tag satisfied; if it stays below, tag not satisfied

For orientation, consider the following solved cases.
alteration: E7R
label.value: not satisfied
//
alteration: P8N
label.value: not satisfied
//
alteration: E7M
label.value: not satisfied
//
alteration: V21I
label.value: not satisfied
//
alteration: F11G
label.value: satisfied
//
alteration: A3E
label.value: satisfied
//
alteration: V23P
label.value: not satisfied
//
alteration: L5Y
label.value: satisfied

Please look at the following variant next.
input: Does the variant L24T have recorded protein stability index that is 3 or more?
output: not satisfied
